tested on: ORYSAT (Rice, Tebonnet); test: Postemergence herbicidal evaluation; type: in vivo, Oryza sativa, (L.) Tebonnet; settings: rate 0.0320 kg/ha
ASSAY READOUT: Postemergence herbicidal rating, ORYSAT

compound=Cc1csc(-c2nsc3ccc(-n4c(=O)cc(C(F)(F)F)n(C)c4=O)cc23)n1 result=4.5
compound="COC(=O)C(C)Oc1ccsc1-c1nsc2ccc(-n3c(=O)cc(C(F)(F)F)n(C)c3=O)cc12 (stereo not shown)" result=2.5
compound=C#CCOC(=O)COc1ccsc1-c1nsc2ccc(-n3c(=O)cc(C(F)(F)F)n(C)c3=O)cc12 result=1.5
compound=Cc1cccnc1-c1nsc2ccc(-n3c(=O)cc(C(F)(F)F)n(C)c3=O)cc12 result=3.3

----------
Listed here: items and their measured Preemergence herbicidal rating GLXMAW.
test system: GLXMAW (Soybean, Williams); test: Preemergence herbicidal evaluation; format: in vivo, Glycine max, (L.) Merr. cv Williams; details: Rate 0.2500 kg/ha; rated 4-5 weeks after treatment
ASSAY READOUT: Preemergence herbicidal rating GLXMAW

molecule=Cc1nn(-c2nsc3ccc(-n4c(=O)cc(C(F)(F)F)n(C)c4=O)cc23)c(C)c1C quantitative_readout=0.0
molecule=Cn1c(C(F)(F)F)cc(=O)n(-c2cc3c(C4OCCCO4)nsc3cc2F)c1=O quantitative_readout=9.0
molecule="CCCC1COC(c2nsc3ccc(-n4c(=O)cc(C(F)(F)F)n(C)c4=O)cc23)O1 (centres unmarked)" quantitative_readout=9.0
molecule=C=C1COC(c2nsc3ccc(-n4c(=O)cc(C(F)(F)F)n(C)c4=O)cc23)OC1 quantitative_readout=9.0
molecule=Cc1sccc1-c1nsc2ccc(-n3c(=O)cc(C(F)(F)F)n(C)c3=O)cc12 quantitative_readout=7.5
molecule=Cc1cnn(-c2nsc3ccc(-n4c(=O)cc(C(F)(F)F)n(C)c4=O)cc23)c1 quantitative_readout=3.0
molecule="Cn1c(C(F)(F)F)cc(=O)n(-c2ccc3snc(C4OCC(CCl)O4)c3c2)c1=O (centres unmarked)" quantitative_readout=9.0
molecule="C[C@@H]1C[C@H](C)OC(c2nsc3ccc(-n4c(=O)cc(C(F)(F)F)n(C)c4=O)cc23)O1 (some centres unmarked)" quantitative_readout=8.0

----------
system: MOOVA (Monochoria vaginalis); test: Flooded paddy, preemergence weed control; type: in vivo, Presl.; conditions: rate 0.0080 kg/ha, rated 3-4 weeks after treatment, 0-9 rating scale
ASSAY READOUT: herbicidal rating, MOOVA

compound="Cn1c(C(F)(F)F)cc(=O)n(-c2ccc3snc(C4OCCCO4)c3c2)c1=O [Compound 28]" assay_readout="herbicidal rating, MOOVA" result=9.0
compound="Cn1c(C(F)(F)F)cc(=O)n(-c2ccc3snc(-c4sccc4Cl)c3c2)c1=O [Compound 52]" assay_readout="herbicidal rating, MOOVA" result=9.0
compound="C[C@@H]1OC(c2nsc3cc(F)c(-n4c(=O)cc(C(F)(F)F)n(C)c4=O)cc23)O[C@@H]1C (stereo partly drawn) [Compound 63]" assay_readout="herbicidal rating, MOOVA" result=3.0
compound="Cn1c(C(F)(F)F)cc(=O)n(-c2cc3c(C4OCCCO4)nsc3cc2F)c1=O [Compound 62]" assay_readout="herbicidal rating, MOOVA" result=8.0
compound="CCc1cc(-c2nsc3ccc(-n4c(=O)cc(C(F)(F)F)n(C)c4=O)cc23)c(CC)s1 [Compound 8]" assay_readout="herbicidal rating, MOOVA" result=9.0
compound="CCCC1COC(c2nsc3ccc(-n4c(=O)cc(C(F)(F)F)n(C)c4=O)cc23)O1 (stereo not drawn) [Compound 77]" assay_readout="herbicidal rating, MOOVA" result=0.0

----------
system: ORYSAT (Rice, Tebonnet); experiment: Preemergence herbicidal evaluation; assay type: in vivo, Oryza sativa, (L.) Tebonnet; conditions: Rate 0.1250 kg/ha; preemergence; rated 4-5 weeks after treatment
Parameter: ORYSAT preemergence herbicidal rating. Scope: all listed entries.
ASSAY READOUT: ORYSAT preemergence herbicidal rating

molecule=Cn1c(C(F)(F)F)cc(=O)n(-c2ccc3snc(-c4ccsc4)c3c2)c1=O assay_system="ORYSAT (Rice, Tebonnet)" assay_readout="ORYSAT preemergence herbicidal rating" quantitative_readout=5.0
molecule=Cc1cccnc1-c1nsc2ccc(-n3c(=O)cc(C(F)(F)F)n(C)c3=O)cc12 assay_system="ORYSAT (Rice, Tebonnet)" assay_readout="ORYSAT preemergence herbicidal rating" quantitative_readout=7.0
molecule="COC(=O)C(C)Oc1ccsc1-c1nsc2ccc(-n3c(=O)cc(C(F)(F)F)n(C)c3=O)cc12 (centres unmarked)" assay_system="ORYSAT (Rice, Tebonnet)" assay_readout="ORYSAT preemergence herbicidal rating" quantitative_readout=0.0
molecule=Cc1nnc(-c2nsc3ccc(-n4c(=O)cc(C(F)(F)F)n(C)c4=O)cc23)s1 assay_system="ORYSAT (Rice, Tebonnet)" assay_readout="ORYSAT preemergence herbicidal rating" quantitative_readout=0.0
molecule=Cc1ccc(-c2nsc3ccc(-n4c(=O)cc(C(F)(F)F)n(C)c4=O)cc23)s1 assay_system="ORYSAT (Rice, Tebonnet)" assay_readout="ORYSAT preemergence herbicidal rating" quantitative_readout=0.5
molecule=Cc1cc(C)c(-c2nsc3ccc(-n4c(=O)cc(C(F)(F)F)n(C)c4=O)cc23)s1 assay_system="ORYSAT (Rice, Tebonnet)" assay_readout="ORYSAT preemergence herbicidal rating" quantitative_readout=2.0
molecule=C#CCOC(=O)COc1ccsc1-c1nsc2ccc(-n3c(=O)cc(C(F)(F)F)n(C)c3=O)cc12 assay_system="ORYSAT (Rice, Tebonnet)" assay_readout="ORYSAT preemergence herbicidal rating" quantitative_readout=0.0
molecule=Cn1c(C(F)(F)F)cc(=O)n(-c2ccc3snc(-c4ccccn4)c3c2)c1=O assay_system="ORYSAT (Rice, Tebonnet)" assay_readout="ORYSAT preemergence herbicidal rating" quantitative_readout=6.7

----------
Catalogue of Postemergence herbicidal rating, ABUTH readings, one per entry.
system: ABUTH (Abutilon theophrasti); test: Postemergence herbicidal evaluation; format: in vivo, Medic.; conditions: rate 0.1250 kg/ha
ASSAY READOUT: Postemergence herbicidal rating, ABUTH

chemical_string=CN(C(=O)c1nsc2ccc(-n3c(=O)cc(C(F)(F)F)n(C)c3=O)cc12)c1ccc(Cl)cc1 assay_readout="Postemergence herbicidal rating, ABUTH" quantitative_readout=9.0
chemical_string=Cc1ccsc1-c1nsc2ccc(-n3c(=O)cc(C(F)(F)F)n(C)c3=O)cc12 assay_readout="Postemergence herbicidal rating, ABUTH" quantitative_readout=9.0
chemical_string=Cc1ccc(-c2nsc3ccc(N4C(=O)C5=C(CCCC5)C4=O)cc23)s1 assay_readout="Postemergence herbicidal rating, ABUTH" quantitative_readout=9.0
chemical_string=Cc1ccc(-c2nsc3ccc(-n4c(=O)cc(C(F)(F)F)n(C)c4=O)cc23)s1 assay_readout="Postemergence herbicidal rating, ABUTH" quantitative_readout=9.0

----------
Tested on: CYPIR (Cyperus iria)
Test: Flooded paddy, preemergence weed control
Type: in vivo
Settings: rate 0.0320 kg/ha, rated 3-4 weeks after treatment, 0-9 rating scale
Protocol: Results of herbicide evaluation are expressed on a rating scale (0-9). The scale is based upon a visual observation of plant stand, vigor, malformation, size, chlorosis and overall plant appearance as compared with a control. Preemergence herbicidal activity under flooded paddy conditions is determined as follows: plant seeds or propagating organs are planted in the top 0.5 cm of silt loam soil in 32 oz. plastic containers with a diameter of 10.5 cm and no drainage holes. […]
herbicidal rating, CYPIR less than 6 is y; herbicidal rating, CYPIR greater than or equal to 6 is n.

compound="Cn1c(C(F)(F)F)cc(=O)n(-c2ccc3snc(C4=NCCO4)c3c2)c1=O [Compound 75]" class_assignment=n
compound="Cn1c(C(F)(F)F)cc(=O)n(-c2ccc3snc(C4OCC(c5ccccc5)O4)c3c2)c1=O (stereo not shown) [Compound 78]" class_assignment=n
compound="CCc1cc(-c2nsc3ccc(-n4c(=O)cc(C(F)(F)F)n(C)c4=O)cc23)c(CC)s1 [Compound 8]" class_assignment=n
compound="C[C@@H]1C[C@H](C)OC(c2nsc3cc(F)c(-n4c(=O)cc(C(F)(F)F)n(C)c4=O)cc23)O1 (stereo partly shown) [Compound 67]" class_assignment=n
compound="CC1=CC(C)(C)OC(c2nsc3ccc(-n4c(=O)cc(C(F)(F)F)n(C)c4=O)cc23)C1 (stereo not shown) [Compound 65]" class_assignment=y
compound="Cc1ccsc1-c1nsc2ccc(-n3c(=O)cc(C(F)(F)F)n(C)c3=O)cc12 [Compound 4]" class_assignment=n
compound="Cn1c(C(F)(F)F)cc(=O)n(-c2ccc3snc(C4SCCS4)c3c2)c1=O [Compound 24]" class_assignment=y
compound="C#CCOC(=O)COc1ccsc1-c1nsc2ccc(-n3c(=O)cc(C(F)(F)F)n(C)c3=O)cc12 [Compound 39]" class_assignment=y
compound="COC(=O)COc1ccsc1-c1nsc2ccc(-n3c(=O)cc(C(F)(F)F)n(C)c3=O)cc12 [Compound 22]" class_assignment=y
compound="Cn1c(C(F)(F)F)cc(=O)n(-c2ccc3snc(C4OC(C)(C)C(C)(C)O4)c3c2)c1=O [Compound 56]" class_assignment=n
compound="Cn1c(C(F)(F)F)cc(=O)n(-c2ccc3snc(C4OC(=O)C(C)(C)O4)c3c2)c1=O (stereo not shown) [Compound 71]" class_assignment=y
compound="Cc1sccc1-c1nsc2ccc(-n3c(=O)cc(C(F)(F)F)n(C)c3=O)cc12 [Compound 68]" class_assignment=n
compound="Cc1cc(C)nc(-c2nsc3ccc(-n4c(=O)cc(C(F)(F)F)n(C)c4=O)cc23)n1 [Compound 40]" class_assignment=y
compound="Cn1c(C(F)(F)F)cc(=O)n(-c2cc3c(C4OCCCO4)nsc3cc2F)c1=O [Compound 62]" class_assignment=n
compound="Cc1cscc1-c1nsc2ccc(-n3c(=O)cc(C(F)(F)F)n(C)c3=O)cc12 [Compound 26]" class_assignment=n
